Target: IDO1 (Homo sapiens (Human), UniProt P14902)
Sequence (P14902 whole entry): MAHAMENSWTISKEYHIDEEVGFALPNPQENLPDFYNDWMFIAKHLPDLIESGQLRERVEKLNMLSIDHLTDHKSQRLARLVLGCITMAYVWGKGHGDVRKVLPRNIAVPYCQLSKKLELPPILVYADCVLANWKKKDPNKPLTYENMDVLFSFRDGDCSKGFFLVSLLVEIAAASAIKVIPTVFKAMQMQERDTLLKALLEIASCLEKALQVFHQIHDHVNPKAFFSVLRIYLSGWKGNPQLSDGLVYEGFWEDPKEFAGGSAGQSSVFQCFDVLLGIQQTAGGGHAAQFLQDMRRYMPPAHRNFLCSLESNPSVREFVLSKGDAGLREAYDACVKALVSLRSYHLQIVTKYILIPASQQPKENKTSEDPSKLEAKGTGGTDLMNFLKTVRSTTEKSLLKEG
Test: IDO1 Cellular Assay in Hela Cells Stimulated with IFNγ
Assay type: cell-based
Settings: Hela cells stimulated with IFNγ 100 ng/mL; read-out: IDO1 HELA Cell Assay, IC50
Rule: measured IC50 below 70 nM gets MET; anything equal to or greater than 70 nM gets NOT MET.

Illustrative cases are given below, each with its answer.
N#Cc1cc(N/C(=N\O)c2nonc2SC[C@@H]2CCC(=O)N2)ccc1F [Example 149]    NOT MET
NC(=O)NCCSc1nonc1/C(=N/O)Nc1ccc(F)c(Br)c1 [Example 46]    MET
O=c1cc(C(F)(F)F)cc(CSc2nonc2/C(=N/O)Nc2ccc(F)c(Br)c2)[nH]1 [Example 88]    NOT MET

Is it true that IC50 reported for CC(=O)NCCSc1nonc1/C(=N/O)Nc1ccc(F)c(C#N)c1 [Example 37] is less than 70 nM? MET

Is it true that IC50 reported for CCNc1c(NCCSc2nonc2/C(=N/O)Nc2ccc(F)c(Br)c2)c(=O)c1=O [Example 55] is less than 70 nM? MET

State whether 70 nM exceeds IC50 recorded for CC(=O)NCCSc1nonc1/C(=N/O)Nc1cccc(Br)c1 [Example 59] . MET

Does this compound meet the criterion IC50 < 70 nM? O=C(CSc1nonc1/C(=N/O)Nc1ccc(F)c(Br)c1)N[C@H]1C[C@@H](O)[C@@H](O)C1 [Example 177] NOT MET

Strictly below 70 nM in IC50? O=C(CSc1nonc1/C(=N/O)Nc1ccc(F)c(Br)c1)NC[C@H](O)CO [Example 175] NOT MET

Consider the compound OCC(O)CSc1nonc1/C(=N/O)Nc1ccc(F)c(Br)c1 (single isomer, unassigned) [Example 63] . Is its IC50 strictly less than 70 nM? MET

Input NS(=O)(=O)N1CCC(Sc2nonc2/C(=N/O)Nc2ccc(F)c(Br)c2)CC1 [Example 76] ; condition: IC50 strictly below 70 nM. Does it hold? MET

Does this compound meet the criterion IC50 < 70 nM? COC(=O)CNP(=O)(CSc1nonc1/C(=N/O)Nc1ccc(F)c(Br)c1)NCC(=O)OC [Example 120] MET

For this compound, is IC50 lower than 70 nM? N#Cc1cc(N/C(=N\O)c2nonc2SC[C@@H](O)CO)ccc1F [Example 140] NOT MET

Hi there! Is IC50 for CNC(=O)CCSc1nonc1/C(=N/O)Nc1ccc(F)c(Br)c1 [Example 70] below 70 nM, do you know? MET

Say whether its IC50 is strictly beneath 70 nM. Entry: N#CCSc1nonc1/C(=N/O)Nc1ccc(F)c(Br)c1 [Example 67] MET

Record ON=C(Nc1ccc(F)c(Br)c1)c1nonc1SCCc1cscn1 [Example 152] : is its IC50 strictly below 70 nM? NOT MET

Dear colleague, could you confirm whether IC50 of CC(=O)NCCSc1nonc1/C(=N/O)Nc1ccc(F)c(Br)c1 [Example 11] falls below 70 nM? Thanks. MET

Is the reported IC50 for CNP(=O)(CCSc1nonc1/C(=N/O)Nc1ccc(F)c(Br)c1)NC [Example 103] strictly below 70 nM? MET

is_below(IC50, 70 nM) for CC(O)CNC(=O)CSc1nonc1C(=NO)Nc1ccc(F)c(Br)c1 (stereo not shown) [Example 138] ? MET

This collection of values is drawn from patent US10538497B2.
